Kd tested on FLT3 (Homo sapiens): recorded values
Sequence (P36888 27-993): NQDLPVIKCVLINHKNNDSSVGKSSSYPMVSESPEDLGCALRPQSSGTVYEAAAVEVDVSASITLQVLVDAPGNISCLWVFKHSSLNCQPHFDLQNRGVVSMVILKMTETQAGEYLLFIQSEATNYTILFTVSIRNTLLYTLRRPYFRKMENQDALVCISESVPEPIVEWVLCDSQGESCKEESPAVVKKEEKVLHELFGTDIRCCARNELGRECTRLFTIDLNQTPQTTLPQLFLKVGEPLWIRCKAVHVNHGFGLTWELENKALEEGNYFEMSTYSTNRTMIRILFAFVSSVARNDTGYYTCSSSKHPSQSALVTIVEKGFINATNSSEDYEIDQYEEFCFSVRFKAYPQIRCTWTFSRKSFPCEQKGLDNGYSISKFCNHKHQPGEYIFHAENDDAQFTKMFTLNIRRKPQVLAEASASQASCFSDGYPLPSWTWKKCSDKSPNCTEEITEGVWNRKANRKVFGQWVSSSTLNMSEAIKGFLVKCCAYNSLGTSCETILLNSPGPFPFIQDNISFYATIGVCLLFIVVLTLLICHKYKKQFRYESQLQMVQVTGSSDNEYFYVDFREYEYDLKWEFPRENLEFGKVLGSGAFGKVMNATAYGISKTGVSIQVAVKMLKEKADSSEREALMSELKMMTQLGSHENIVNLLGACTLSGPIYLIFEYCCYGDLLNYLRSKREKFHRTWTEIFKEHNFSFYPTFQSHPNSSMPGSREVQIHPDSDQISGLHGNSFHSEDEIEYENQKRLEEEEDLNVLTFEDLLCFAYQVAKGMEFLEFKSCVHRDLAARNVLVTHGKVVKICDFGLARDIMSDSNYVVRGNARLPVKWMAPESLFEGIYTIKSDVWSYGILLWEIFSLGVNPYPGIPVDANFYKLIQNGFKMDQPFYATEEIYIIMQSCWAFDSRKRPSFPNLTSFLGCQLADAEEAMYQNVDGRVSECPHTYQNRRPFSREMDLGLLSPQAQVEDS

Some solved cases for reference:
COc1cc2c(Nc3ncc(C)s3)nc(N3CCC(F)(F)CC3)nc2cc1OCCCN1CCCC1: > 10 µM
COc1cc2c(Nc3cc(C(C)(C)C)[nH]n3)nc(N3CCC(F)(F)CC3)nc2cc1OCCCN1CCCC1: > 10 µM
COc1cc2c(Nc3cc(C)[nH]n3)nc(N3CCC(F)(F)CC3)nc2cc1OCCCN1CCCC1: 1 to 5 µM

As a next step, examine the compound that follows.
Per the record, COc1cc2c(Nc3cc(C)[nH]n3)nc(N3CCCC3)nc2cc1OCCCN1CCCC1 has Kd of > 10 µM

====

Exercise: for every item that follows, state its recorded IC50.
- Test system: SKOV-3
- EXPERIMENT: Cancer cytotoxicity assay (Real-Time-Glo cell viability), SKOV-3
- Format: cell-based
- MEASUREMENT PARAMETERS: Homo sapiens, SK-OV-3; ovarian cancer cell line, 72 hr

COc1cc2c(Nc3cc(C(C)C)[nH]n3)nc(N3CCC(F)(F)CC3)nc2cc1OCCCN1CCCC1: 1000 to 5000 nM
COc1cc2c(Nc3cc(C4CC4)[nH]n3)nc(N3CCC(F)(F)CC3)nc2cc1OCCCN1CCCC1: 1000 to 5000 nM
COc1cc2c(Nc3cc(C)[nH]n3)nc(N3CCC3)nc2cc1OCCCN1CCCC1: > 10000 nM
COc1cc2c(Nc3ncc(C)s3)nc(N3CCC(F)(F)CC3)nc2cc1OCCCN1CCCC1: 1000 to 5000 nM
COc1cc2c(Nc3cc(C4CCC4)[nH]n3)nc(N3CCC(F)(F)CC3)nc2cc1OCCCN1CCCC1: 1000 to 5000 nM
CCc1cc(Nc2nc(N3CCC(F)(F)CC3)nc3cc(OCCCN4CCCC4)c(OC)cc23)n[nH]1: 1000 to 5000 nM
COc1cc2c(Nc3nnc(C)s3)nc(N3CCC(F)(F)CC3)nc2cc1OCCCN1CCCC1: 1000 to 5000 nM
COc1cc2c(Nc3cc(C)[nH]n3)nc(N3CCCC3)nc2cc1OCCCN1CCCC1: 1000 to 5000 nM
COc1cc2c(Nc3cc(C)[nH]n3)nc(N3CCC(F)(F)CC3)nc2cc1OCCCN1CCCC1: 1000 to 5000 nM

As a next step, examine the compound that follows.
Per the record, COc1cc2c(Nc3cc(C(C)(C)C)[nH]n3)nc(N3CCC(F)(F)CC3)nc2cc1OCCCN1CCCC1 has IC50 of 1000 to 5000 nM

====

- SYSTEM TESTED: PLK4 (Homo sapiens)
- Construct: purchased Eurofins DiscoverX (contract service)
- Sequence (O00444 1-970): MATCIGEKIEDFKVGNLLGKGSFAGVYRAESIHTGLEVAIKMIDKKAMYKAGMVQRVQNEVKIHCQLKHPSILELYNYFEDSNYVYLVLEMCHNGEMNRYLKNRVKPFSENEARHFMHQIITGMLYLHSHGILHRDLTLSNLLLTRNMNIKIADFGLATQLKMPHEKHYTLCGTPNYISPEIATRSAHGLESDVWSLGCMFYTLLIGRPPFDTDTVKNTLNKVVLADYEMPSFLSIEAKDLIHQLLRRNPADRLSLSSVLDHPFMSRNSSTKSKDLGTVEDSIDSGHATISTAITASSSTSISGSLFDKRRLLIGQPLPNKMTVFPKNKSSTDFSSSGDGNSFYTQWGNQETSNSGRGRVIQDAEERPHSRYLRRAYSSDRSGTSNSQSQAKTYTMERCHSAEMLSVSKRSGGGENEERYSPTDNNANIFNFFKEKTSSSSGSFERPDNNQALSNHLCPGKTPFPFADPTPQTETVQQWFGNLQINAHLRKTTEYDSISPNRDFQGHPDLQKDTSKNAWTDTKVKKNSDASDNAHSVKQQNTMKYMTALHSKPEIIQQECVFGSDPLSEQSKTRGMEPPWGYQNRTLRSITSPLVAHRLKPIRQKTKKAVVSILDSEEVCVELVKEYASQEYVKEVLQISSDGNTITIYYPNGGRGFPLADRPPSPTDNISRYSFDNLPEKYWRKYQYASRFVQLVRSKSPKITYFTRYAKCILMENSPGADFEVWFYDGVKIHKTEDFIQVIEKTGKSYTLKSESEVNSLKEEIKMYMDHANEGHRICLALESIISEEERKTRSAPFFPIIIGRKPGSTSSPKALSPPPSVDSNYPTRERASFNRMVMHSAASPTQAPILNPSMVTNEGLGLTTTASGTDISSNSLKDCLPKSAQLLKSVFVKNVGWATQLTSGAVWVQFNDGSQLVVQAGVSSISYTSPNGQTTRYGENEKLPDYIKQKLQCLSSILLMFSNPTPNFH
- EXPERIMENT: Kinase inhibition assay (Eurofins DiscoverX KinaseProfiler / KdElect), PLK4
- Assay type: biochemical
Exercise: for every item that follows, state its recorded IC50.

Some solved cases for reference:
COc1cc2c(Nc3cc(C4CCC4)[nH]n3)nc(N3CCC(F)(F)CC3)nc2cc1OCCCN1CCCC1 [Compound 10]: 1000 to 5000 nM
COc1cc2c(Nc3cc(C4CC4)[nH]n3)nc(N3CCC(F)(F)CC3)nc2cc1OCCCN1CCCC1 [Compound 6]: < 1000 nM
COc1cc2c(Nc3cc(C)[nH]n3)nc(N3CCCC3)nc2cc1OCCCN1CCCC1 [Compound 1]: > 10000 nM
COc1cc2c(Nc3ncc(C)s3)nc(N3CCC(F)(F)CC3)nc2cc1OCCCN1CCCC1 [Compound 9]: > 10000 nM
CCc1cc(Nc2nc(N3CCC(F)(F)CC3)nc3cc(OCCCN4CCCC4)c(OC)cc23)n[nH]1 [Compound 8]: < 1000 nM
COc1cc2c(Nc3cc(C(C)(C)C)[nH]n3)nc(N3CCC(F)(F)CC3)nc2cc1OCCCN1CCCC1 [Compound 7]: > 10000 nM

Each compound below has a reported value. Please supply its IC50.
1. COc1cc2c(Nc3cc(C)[nH]n3)nc(N3CCC(F)(F)CC3)nc2cc1OCCCN1CCCC1 [Compound 3]
2. COc1cc2c(Nc3cc(C(C)C)[nH]n3)nc(N3CCC(F)(F)CC3)nc2cc1OCCCN1CCCC1 [Compound 13]
3. COc1cc2c(Nc3cc(C)[nH]n3)nc(N3CCC3)nc2cc1OCCCN1CCCC1 [Compound 4]

result:
< 1000 nM
> 10000 nM
> 10000 nM

====

- Tested on: Kasumi-1
- EXPERIMENT: Cancer cytotoxicity assay (Real-Time-Glo cell viability), Kasumi-1
- Assay type: cell-based
- MEASUREMENT PARAMETERS: Homo sapiens, leukemia cell, 72 hr
QUANTITY: IC50

Some solved cases for reference:
COc1cc2c(Nc3cc(C)[nH]n3)nc(N3CCC(F)(F)CC3)nc2cc1OCCCN1CCCC1 [Compound 3]: > 10000 nM
CCc1cc(Nc2nc(N3CCC(F)(F)CC3)nc3cc(OCCCN4CCCC4)c(OC)cc23)n[nH]1 [Compound 8]: 1000 to 5000 nM
COc1cc2c(Nc3cc(C)[nH]n3)nc(N3CCCC3)nc2cc1OCCCN1CCCC1 [Compound 1]: 1000 to 5000 nM

Each compound below has a reported value. Please supply its IC50.
1. COc1cc2c(Nc3cc(C(C)C)[nH]n3)nc(N3CCC(F)(F)CC3)nc2cc1OCCCN1CCCC1 [Compound 13]
2. COc1cc2c(Nc3cc(C(C)(C)C)[nH]n3)nc(N3CCC(F)(F)CC3)nc2cc1OCCCN1CCCC1 [Compound 7]
3. COc1cc2c(Nc3nnc(C)s3)nc(N3CCC(F)(F)CC3)nc2cc1OCCCN1CCCC1 [Compound 12]
4. COc1cc2c(Nc3ncc(C)s3)nc(N3CCC(F)(F)CC3)nc2cc1OCCCN1CCCC1 [Compound 9]
5. COc1cc2c(Nc3cc(C4CC4)[nH]n3)nc(N3CCC(F)(F)CC3)nc2cc1OCCCN1CCCC1 [Compound 6]
6. COc1cc2c(Nc3cc(C)[nH]n3)nc(N3CCC3)nc2cc1OCCCN1CCCC1 [Compound 4]

result:
["1000 to 5000 nM", "1000 to 5000 nM", "1000 to 5000 nM", "1000 to 5000 nM", "1000 to 5000 nM", "> 10000 nM"]

Per the record, COc1cc2c(Nc3cc(C4CCC4)[nH]n3)nc(N3CCC(F)(F)CC3)nc2cc1OCCCN1CCCC1 [Compound 10] has IC50 of < 1000 nM
